tested on: HepG2; assay: GSK_TCMDC: Percent inhibition of human HepG2 cell line. Test compounds present at 10uM.; format: functional
measure_name: Inhibition (%)

> print(dat)
                                   molecule    tgt  measure.name  observed.result
1  Cc1cc(N(C)C2CCN(CC3CCCCC3)C2)nc(Nc2ccc(Br)cc2)n1 (stereo not given)  HepG2    Inhibition               14
2  COc1ccc2nc(-c3ccc(C(=O)NCCCN4CCN(c5cc(Cl)ccc5OC)CC4)cc3)[nH]c2c1  HepG2    Inhibition                0
3  Cc1ccccc1C1CCN(C2CCC(NC(=O)/C=C/c3ccc(C(F)(F)F)cc3F)CC2)CC1 (stereo not given)  HepG2    Inhibition               72
4  COc1ccc(Nc2nccc(NCCNC(=O)c3cc4ccccc4s3)n2)cc1  HepG2    Inhibition                6
5  COc1ccc2nccc([C@@H](O)CN3CCC(NCc4ccc5c(c4)NC(=O)C(C)S5)CC3)c2c1.O=C(O)C(=O)O (stereo not given in full)  HepG2    Inhibition                7
